Where these numbers come from: the RNAGym collection of RNA variant scans (doi:10.1073/pnas.2313332121)

The entries below come with measured polymerase ribozyme fitness (log ratio) values attached.
B1: TPR t1 (parent)
chain: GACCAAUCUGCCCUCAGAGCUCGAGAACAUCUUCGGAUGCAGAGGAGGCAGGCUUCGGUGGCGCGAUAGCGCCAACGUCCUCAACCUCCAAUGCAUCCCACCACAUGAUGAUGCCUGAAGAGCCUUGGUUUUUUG

Variants of: B1
Assay: polymerase ribozyme fitness, log enrichment relative to wild type (log ratio); higher = more active; in vitro selection for triplet polymerase activity
recorded metric: polymerase ribozyme fitness (log ratio)

[[record]]
alteration = "U38A G63U U131A"
recorded_metric = "polymerase ribozyme fitness (log ratio)"
observed_measurement = -2.72

[[record]]
alteration = "C94U C114U"
recorded_metric = "polymerase ribozyme fitness (log ratio)"
observed_measurement = -2.58

[[record]]
alteration = "A5C U81A"
recorded_metric = "polymerase ribozyme fitness (log ratio)"
observed_measurement = -1.65

[[record]]
alteration = "C4U C12U G61A"
recorded_metric = "polymerase ribozyme fitness (log ratio)"
observed_measurement = -0.369

[[record]]
alteration = "C11U A118U"
recorded_metric = "polymerase ribozyme fitness (log ratio)"
observed_measurement = -0.464

[[record]]
alteration = "C22G C56G C86U C124U"
recorded_metric = "polymerase ribozyme fitness (log ratio)"
observed_measurement = -3.03

[[record]]
alteration = "A2G G19A A43G C80U C104U"
recorded_metric = "polymerase ribozyme fitness (log ratio)"
observed_measurement = -4.42

[[record]]
alteration = "C12G A26G C98U"
recorded_metric = "polymerase ribozyme fitness (log ratio)"
observed_measurement = -3.76

[[record]]
alteration = "C8G C20U A68G G113C"
recorded_metric = "polymerase ribozyme fitness (log ratio)"
observed_measurement = -5.52

[[record]]
alteration = "C15G G48A U78G C97U A111U"
recorded_metric = "polymerase ribozyme fitness (log ratio)"
observed_measurement = -6.43

[[record]]
alteration = "A18U U59G G60A"
recorded_metric = "polymerase ribozyme fitness (log ratio)"
observed_measurement = -4.56

[[record]]
alteration = "C72U C79A C115U"
recorded_metric = "polymerase ribozyme fitness (log ratio)"
observed_measurement = -3.58

[[record]]
alteration = "G52A G120U"
recorded_metric = "polymerase ribozyme fitness (log ratio)"
observed_measurement = -0.416

[[record]]
alteration = "G60U C114U"
recorded_metric = "polymerase ribozyme fitness (log ratio)"
observed_measurement = -2.1

[[record]]
alteration = "A5U A18U C88U"
recorded_metric = "polymerase ribozyme fitness (log ratio)"
observed_measurement = -2.74

[[record]]
alteration = "C85U G120U"
recorded_metric = "polymerase ribozyme fitness (log ratio)"
observed_measurement = 0.655

[[record]]
alteration = "C53U U54G C56U U129C U133G"
recorded_metric = "polymerase ribozyme fitness (log ratio)"
observed_measurement = -0.985

[[record]]
alteration = "A50C A66U C72U U81G C85A"
recorded_metric = "polymerase ribozyme fitness (log ratio)"
observed_measurement = -3.05

[[record]]
alteration = "C40A C82A U92A C102A C124U"
recorded_metric = "polymerase ribozyme fitness (log ratio)"
observed_measurement = -4.16

[[record]]
alteration = "G61U U87A A121U"
recorded_metric = "polymerase ribozyme fitness (log ratio)"
observed_measurement = 1.5

[[record]]
alteration = "A46G C53U G113A"
recorded_metric = "polymerase ribozyme fitness (log ratio)"
observed_measurement = -2.14

[[record]]
alteration = "C11U C12G C15U C28G U38A C56U G69C G120A"
recorded_metric = "polymerase ribozyme fitness (log ratio)"
observed_measurement = -7.02

[[record]]
alteration = "C8U C12A G19U U59C A75U G120A"
recorded_metric = "polymerase ribozyme fitness (log ratio)"
observed_measurement = -1.37

[[record]]
alteration = "U54A U133G"
recorded_metric = "polymerase ribozyme fitness (log ratio)"
observed_measurement = -0.274

[[record]]
alteration = "C8A C49U C73U U130A"
recorded_metric = "polymerase ribozyme fitness (log ratio)"
observed_measurement = -0.88

[[record]]
alteration = "A74C U109A"
recorded_metric = "polymerase ribozyme fitness (log ratio)"
observed_measurement = -5.88

[[record]]
alteration = "A103C G107A U112G G113A"
recorded_metric = "polymerase ribozyme fitness (log ratio)"
observed_measurement = -6.72

[[record]]
alteration = "G48U G57U C76G U78A G117A"
recorded_metric = "polymerase ribozyme fitness (log ratio)"
observed_measurement = -2.42

[[record]]
alteration = "C12U G60C U112G"
recorded_metric = "polymerase ribozyme fitness (log ratio)"
observed_measurement = 0.137

[[record]]
alteration = "G52U G117A"
recorded_metric = "polymerase ribozyme fitness (log ratio)"
observed_measurement = -1.81

[[record]]
alteration = "A50C G60U C97A"
recorded_metric = "polymerase ribozyme fitness (log ratio)"
observed_measurement = -5.38

[[record]]
alteration = "G19A C62A U78A U81A C101G G113U U130A"
recorded_metric = "polymerase ribozyme fitness (log ratio)"
observed_measurement = -6.38

[[record]]
alteration = "A24C A43U C49A C79A C98U C114U"
recorded_metric = "polymerase ribozyme fitness (log ratio)"
observed_measurement = -7.85

[[record]]
alteration = "U14G C101U U126G"
recorded_metric = "polymerase ribozyme fitness (log ratio)"
observed_measurement = -4.96

[[record]]
alteration = "G71A U116C"
recorded_metric = "polymerase ribozyme fitness (log ratio)"
observed_measurement = -1.26

[[record]]
alteration = "G44U G45U G60C C101U A121G U131C"
recorded_metric = "polymerase ribozyme fitness (log ratio)"
observed_measurement = -0.695

[[record]]
alteration = "C34A C53G C56A"
recorded_metric = "polymerase ribozyme fitness (log ratio)"
observed_measurement = -2.83

[[record]]
alteration = "A5U G35C"
recorded_metric = "polymerase ribozyme fitness (log ratio)"
observed_measurement = -4.38

[[record]]
alteration = "G61U G107A"
recorded_metric = "polymerase ribozyme fitness (log ratio)"
observed_measurement = -5.22

[[record]]
alteration = "G36A G71A"
recorded_metric = "polymerase ribozyme fitness (log ratio)"
observed_measurement = -1.64

[[record]]
alteration = "G23A G69U G93U"
recorded_metric = "polymerase ribozyme fitness (log ratio)"
observed_measurement = -4.63

[[record]]
alteration = "G48C G71A"
recorded_metric = "polymerase ribozyme fitness (log ratio)"
observed_measurement = -1.65

[[record]]
alteration = "C13U A26G G63C U81A G117C"
recorded_metric = "polymerase ribozyme fitness (log ratio)"
observed_measurement = -6.91

[[record]]
alteration = "A16U C22U"
recorded_metric = "polymerase ribozyme fitness (log ratio)"
observed_measurement = -3.56

[[record]]
alteration = "G39U G93A C123A"
recorded_metric = "polymerase ribozyme fitness (log ratio)"
observed_measurement = -1.36

[[record]]
alteration = "U7G C8U A90U A121C"
recorded_metric = "polymerase ribozyme fitness (log ratio)"
observed_measurement = 1.04

